REPORTED_METRIC: log10 vapour pressure (mmHg)
Keep it simple and answer with nothing but the number.

INSERT INTO measurements (molecule, measurement) VALUES
  ('CC(=O)CC(C)=O', 0.471),
  ('Clc1cc2oc3c(Cl)c(Cl)ccc3c2cc1Cl', -7.68),
  ('CC1(C)[C@H](/C=C(\Cl)C(F)(F)F)[C@@H]1C(=O)O[C@H](C#N)c1cccc(Oc2ccccc2)c1', -8.47),
  ('CCCCCCO[N+](=O)[O-]', 0.199);

# return recorded log10 vapour pressure (mmHg) for entry Cc1ccccc1I
-0.344

# return recorded log10 vapour pressure (mmHg) for entry Cc1ccc(C)c2ccccc12
-1.67

# return recorded log10 vapour pressure (mmHg) for entry CCC(=O)OC(=O)CC
0.134
